tested on: Tryptase, from human lung; test: Enzymatic assay, tryptase; conditions: at 100 μM
Where a SMILES comes first, the peptide text is derived from it.
READOUT KIND: Tryptase at 100 μM %
Your answer should be a number followed by the unit of measure.

CC[C@H](C)[C@@H]1NC(=O)[C@@H]2CCCN2C(=O)[C@@H]2CCCN2C(=O)[C@H](CC(=O)O)NC(=O)[C@H](CO)NC(=O)[C@H](CCCCN)NC(=O)[C@H]([C@@H](C)O)NC(=O)[C@@H]2CSSC[C@H](NC1=O)C(=O)N[C@@H](CO)C(=O)N1CCC[C@@H]1C(=O)N[C@@H](CC(=O)O)C(=O)N[C@@H](Cc1ccccc1)C(=O)N2 [Ex. 47] (HELM PEPTIDE1{F.C.T.K.S.D.P.P.I.C.S.[dP].D}$PEPTIDE1,PEPTIDE1,2:R3-10:R3|PEPTIDE1,PEPTIDE1,1:R1-13:R2$$$V2.0) | 0%

Next compound, Tryptase at 100 μM % to be filled in.
Memo: CC[C@H](C)[C@@H]1NC(=O)[C@H](CO)NC(=O)[C@H](C)NC(=O)[C@H]([C@@H](C)O)NC(=O)[C@@H]2CSSC[C@H](NC(=O)[C@H](CCC(N)=O)NC(=O)[C@@H]3CCCN3C(=O)[C@@H]3CCCN3C1=O)C(=O)N[C@@H](Cc1ccc(O)cc1)C(=O)N1CCC[C@@H]1C(=O)N1CCC[C@H]1C(=O)N[C@@H](CCc1ccccc1)C(=O)N2 [Ex. 103] (HELM PEPTIDE1{[O=C([C@H](CCc1ccccc1)N[*:1])[*:2]].C.T.A.S.I.P.P.Q.C.Y.[dP].P}$PEPTIDE1,PEPTIDE1,2:R3-10:R3|PEPTIDE1,PEPTIDE1,1:R1-13:R2$$$V2.0) , reported Tryptase at 100 μM %: 0.6%

###

Assign IC50 to each entry below.
target: Trypsin, from human pancreas (Homo sapiens); assay: Enzymatic assay, trypsin
Where a SMILES comes first, the peptide text is derived from it.

Take a look at these entries with their results.
CC[C@H](C)[C@@H]1NC(=O)[C@@H]2CCCN2C(=O)[C@H]2CCCN2C(=O)[C@H](CCCNC(=N)N)NC(=O)[C@@H]2CSSC[C@H](NC1=O)C(=O)N[C@@H]([C@@H](C)O)C(=O)N[C@@H](CCCCN)C(=O)N[C@@H](CO)C(=O)N[C@@H](CC1CCCCC1)C(=O)N1CCC[C@H]1C(=O)N1CCC[C@H]1C(=O)N[C@@H]([C@@H](C)CC)C(=O)N2 [Ex. 182] (HELM PEPTIDE1{I.C.T.K.S.[Cha].P.P.I.C.R.[dP].P}$PEPTIDE1,PEPTIDE1,2:R3-10:R3|PEPTIDE1,PEPTIDE1,1:R1-13:R2$$$V2.0) | 59 nM
CC(C)C[C@@H]1NC(=O)[C@H](CO)NC(=O)[C@H](CCCCN)NC(=O)[C@H]([C@@H](C)O)NC(=O)[C@@H]2CSSC[C@H](NC(=O)[C@H](CCCCN)NC(=O)[C@@H]3CCCN3C(=O)[C@@H]3CCCN3C1=O)C(=O)N[C@@H](CCCNC(=N)N)C(=O)N1CCC[C@@H]1C(=O)N1CCC[C@H]1C(=O)N[C@@H](Cc1c[nH]c3ccccc13)C(=O)N2 [Ex. 195] (HELM PEPTIDE1{W.C.T.K.S.L.P.P.K.C.R.[dP].P}$PEPTIDE1,PEPTIDE1,2:R3-10:R3|PEPTIDE1,PEPTIDE1,1:R1-13:R2$$$V2.0) | 108 nM
CC[C@H](C)[C@@H]1NC(=O)[C@@H]2CCCN2C(=O)[C@H]2CCCN2C(=O)[C@H](CCCCN)NC(=O)[C@@H]2CSSC[C@H](NC1=O)C(=O)N[C@@H]([C@@H](C)O)C(=O)N[C@@H](CCCCN)C(=O)N[C@@H](CO)C(=O)N[C@@H](CC(C)C)C(=O)N1CCC[C@H]1C(=O)N1CCC[C@H]1C(=O)N[C@@H](CCCNC(=N)N)C(=O)N2 [Ex. 190] (HELM PEPTIDE1{I.C.T.K.S.L.P.P.R.C.K.[dP].P}$PEPTIDE1,PEPTIDE1,2:R3-10:R3|PEPTIDE1,PEPTIDE1,1:R1-13:R2$$$V2.0) | 172 nM

Next compound, IC50 to be filled in.
The compound listed as CCCC[C@@H]1NC(=O)[C@@H]2CCCN2C(=O)[C@H]2CCCN2C(=O)[C@H](Cc2ccc(O)cc2)NC(=O)[C@@H]2CSSC[C@H](NC1=O)C(=O)N[C@@H]([C@@H](C)O)C(=O)N[C@@H](C)C(=O)N[C@@H](CO)C(=O)N[C@@H]([C@@H](C)CC)C(=O)N1CCC[C@H]1C(=O)N1CCC[C@H]1C(=O)N[C@@H](CCC(N)=O)C(=O)N2 [Ex. 179] (HELM PEPTIDE1{[Nle].C.T.A.S.I.P.P.Q.C.Y.[dP].P}$PEPTIDE1,PEPTIDE1,2:R3-10:R3|PEPTIDE1,PEPTIDE1,1:R1-13:R2$$$V2.0) shows IC50 equal to > 100000 nM
